Assay name: self-splicing fitness, log relative to wild type (ln ratio); higher = more splicing; Tetrahymena group I intron in knt gene, E. coli kanamycin selection, DiMSum; sequences stand for … in CUCUCU…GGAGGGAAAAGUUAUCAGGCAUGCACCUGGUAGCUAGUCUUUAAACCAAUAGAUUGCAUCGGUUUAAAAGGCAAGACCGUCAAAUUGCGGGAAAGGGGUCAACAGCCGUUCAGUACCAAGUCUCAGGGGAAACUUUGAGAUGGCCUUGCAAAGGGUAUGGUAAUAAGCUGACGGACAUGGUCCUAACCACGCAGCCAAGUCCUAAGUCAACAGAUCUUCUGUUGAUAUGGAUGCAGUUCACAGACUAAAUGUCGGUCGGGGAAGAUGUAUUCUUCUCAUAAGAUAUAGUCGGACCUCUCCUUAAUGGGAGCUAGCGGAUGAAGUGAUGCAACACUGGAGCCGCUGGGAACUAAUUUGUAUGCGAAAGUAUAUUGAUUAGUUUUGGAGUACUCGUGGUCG;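 note: selection with 25 µg/mL kanamycin versus none on LB agar overnight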
Assay setup: 30 °C
Could you please report measured self-splicing fitness (ln) for the items listed next?

Solved cases (5 shown):
construct_sequence=UGGUAGCAAUAUUACGUAGC metric="self-splicing fitness (ln)" observed=-1.3
construct_sequence=AUAGAGCAAUAUUACGUCGA metric="self-splicing fitness (ln)" observed=-2.82
construct_sequence=CUGGAGCAAUAUUACGAGAU metric="self-splicing fitness (ln)" observed=-4.02
construct_sequence=UUCCAGCAAUAUUACGUAGU metric="self-splicing fitness (ln)" observed=-1.32
construct_sequence=UUGGAGCAAUAUUACGCAGA metric="self-splicing fitness (ln)" observed=-2.13

Batch of 3 sequences: report self-splicing fitness (ln) for each.
1. AGCGAGCAAUAUUACGACAC
2. GUGCAGCAAUAUUACGUGGG
3. AUUGAGCAAUAUUACGGCAC

(A)
1. -1.34
2. -2.86
3. -3.48

Batch of 4 sequences: report self-splicing fitness (ln) for each.
1. GGCCAGCAAUAUUACGCGGG
2. CCAAAGCAAUAUUACGCGAA
3. GAUAAGCAAUAUUACGGACU
4. AGCUAGCAAUAUUACGGGGC

(A)
1. -3.29
2. -2.8
3. -0.638
4. -3.25

----------
Assay name: self-splicing fitness, log relative to wild type (ln ratio); higher = more splicing; Tetrahymena group I intron in knt gene, E. coli kanamycin selection, DiMSum; sequences stand for … in CUCUCU…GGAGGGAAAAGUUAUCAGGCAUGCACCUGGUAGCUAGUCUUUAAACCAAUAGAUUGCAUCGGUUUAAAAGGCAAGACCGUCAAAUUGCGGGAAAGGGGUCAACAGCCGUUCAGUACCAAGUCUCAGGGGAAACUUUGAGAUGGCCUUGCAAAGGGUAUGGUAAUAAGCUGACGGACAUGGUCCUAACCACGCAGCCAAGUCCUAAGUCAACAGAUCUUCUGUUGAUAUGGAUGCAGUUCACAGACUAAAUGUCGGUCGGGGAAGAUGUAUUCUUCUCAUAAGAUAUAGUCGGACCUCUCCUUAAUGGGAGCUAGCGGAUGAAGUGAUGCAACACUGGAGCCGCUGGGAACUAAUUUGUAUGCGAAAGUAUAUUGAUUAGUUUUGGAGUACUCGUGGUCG
Assay setup: 37 °C
Metric: self-splicing fitness (ln)
Answers are plain numbers.

Solved cases (2 shown):
construct_sequence=GACGAGCAAUAUUACGCAUA metric="self-splicing fitness (ln)" observed=-0.87
construct_sequence=UUCAAGCAAUAUUACGAAAC metric="self-splicing fitness (ln)" observed=-2.89

Next sequence, please.
(Q) Endpoint output: self-splicing fitness (ln) of `CUAGAGCAAUAUUACGAAUA` . Value?
(A) -1.86
